# target.desc: T1, human IL-11 (human, UniProt P20809 22-199)
# T1 construct: bought from Invigate; also called hIL-11; hIL11
# T1 sequence: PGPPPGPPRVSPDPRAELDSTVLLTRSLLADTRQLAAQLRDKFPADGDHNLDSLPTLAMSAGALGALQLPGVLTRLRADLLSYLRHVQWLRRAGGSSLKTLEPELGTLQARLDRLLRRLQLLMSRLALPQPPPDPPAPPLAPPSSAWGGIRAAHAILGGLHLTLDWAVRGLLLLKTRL
# procedure.summary: SPR, IgG captured via anti-human Fc, IL-11 as analyte
Give measured Kd for each item. Keep answers brief.
Give the value, in units of pM, as a plain number.

Ask: Reported Kd, binder TPP-31322 (antibody, IgG4, V domains shown, hIgG4 SPLE, lambda; FB - 1, back mutation VL-S31N) VH: QVQLVESGGGVVQPGRSLRLSCAASGFTFSHYDMHWVRQAPGKGLEWVAVISYEGSNKFYADSVKGRFTISRDNSKNTLYLQMNSLRAEDTAVYYCARTPGSHFDYWGQGTLVTVSS VL: QSVLTQPPSASGTPGQRVTISCSGSSSNIGNNYVNWYQQLPGTAPKLLIYYDDLRPSGVPDRFSGSKSGTSASLAISGLRSEDEADYYCAAWDDSLSGVVFGGGTKLTVL : ____
Result: 810

Ask: Record request: Kd value, item TPP-31312 (antibody, IgG4, V domains shown, also called WT antibody; chimeric antibody) VH: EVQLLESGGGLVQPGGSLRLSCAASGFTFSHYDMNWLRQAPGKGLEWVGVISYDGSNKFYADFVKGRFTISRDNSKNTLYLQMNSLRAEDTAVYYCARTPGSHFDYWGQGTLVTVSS VL: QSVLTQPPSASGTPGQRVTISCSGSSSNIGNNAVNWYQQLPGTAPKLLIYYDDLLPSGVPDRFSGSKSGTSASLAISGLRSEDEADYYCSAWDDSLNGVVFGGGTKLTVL
Result: 5300

Ask: Kd lookup needed for TPP-31325 (antibody, human IgG4 S228P, lambda, V domains shown, hIgG4-SPLE, Lambda; also called final germline; FB with a back-mutation VL-A90S) VH: QVQLVESGGGVVQPGRSLRLSCAASGFTFSHYDMHWVRQAPGKGLEWVAVISYEGSNKFYADSVKGRFTISRDNSKNTLYLQMNSLRAEDTAVYYCARTPGSHFDYWGQGTLVTVSS VL: QSVLTQPPSASGTPGQRVTISCSGSSSNIGSNYVNWYQQLPGTAPKLLIYYDDLRPSGVPDRFSGSKSGTSASLAISGLRSEDEADYYCSAWDDSLSGVVFGGGTKLTVLG , thanks.
Result: 590

Ask: Param item = TPP-31324 (antibody, IgG4, V domains shown, hIgG4 SPLE, lambda; FB - 1, back mutation VL-R55L) VH: QVQLVESGGGVVQPGRSLRLSCAASGFTFSHYDMHWVRQAPGKGLEWVAVISYEGSNKFYADSVKGRFTISRDNSKNTLYLQMNSLRAEDTAVYYCARTPGSHFDYWGQGTLVTVSS VL: QSVLTQPPSASGTPGQRVTISCSGSSSNIGSNYVNWYQQLPGTAPKLLIYYDDLLPSGVPDRFSGSKSGTSASLAISGLRSEDEADYYCAAWDDSLSGVVFGGGTKLTVL ; retrieve measured Kd.
Result: 790
